FYI, the data here is from PubChem BioAssay (NCI).

Test system: M14 melanoma
Test: NCI tumour cell line growth inhibition, 48 h
# maps each entry to its GI50
measurement-name: GI50

compound: CC(=O)Nc1ccc2c(c1)c(C1=C(c3cn(C)c4ccccc34)C(=O)NC1=O)cn2C
measurement-name: GI50
result: 1500 nM

compound: CC(=O)O[C@H]1CC[C@@]2(C)C(=CC[C@@H]3[C@@H]2CC[C@]2(C)C(c4cccnc4)=CC[C@@H]32)C1
measurement-name: GI50
result: 5670 nM

compound: O=[N+]([O-])C1C(c2ccccc2)C12c1ccccc1-c1ccccc12 (centres undefined)
measurement-name: GI50
result: 789 nM

compound: C=C1C(=O)O[C@H]2[C@H]1CC/C(COC(=O)c1cc3cc(F)ccc3[nH]1)=C\CC[C@@]1(C)O[C@@H]21
measurement-name: GI50
result: 1890 nM

###

Tested on: DU-145 prostate
Experiment: NCI tumour cell line growth inhibition, 48 h
Where a SMILES comes first, the peptide text is derived from it. [ ]: non-standard residue; d: D form. The star is where a group is joined. ξ: configuration not given here. ξF = NC(Cc1ccccc1)C(=O)O; Cbz = O=C(OCc1ccccc1)*; Aib = CC(C)(N)C(=O)O
Below, each entry is listed alongside its reported TGI.

molecule: CC(C)(NC(=O)OCc1ccccc1)C(=O)NC(Cc1ccccc1)C(=O)O (stereo unspecified) (Cbz-[Aib]-[ξF]-OH)
uom: µM
modifier: >
TGI: 100
//
molecule: NCCC(N)C(=O)O (stereo unspecified)
uom: µM
modifier: >
TGI: 100
//
molecule: COc1cccc(C2CC(C)(N3CCCC3)Oc3cc4c(cc32)OCO4)c1O (stereo unspecified)
uom: µM
modifier: >
TGI: 96.3
//
molecule: CC1(C)OC2OC(COC(=O)C=[N+]=[N-])C3OC(C)(C)OC3C2O1 (stereo unspecified)
uom: µM
modifier: >
TGI: 100
//
molecule: COc1ccc(C2=C(OC(=O)N(C)C)c3cccn3-c3cc(C(F)(F)F)ccc3S2)cc1
uom: µM
modifier: >
TGI: 10
//
molecule: Cc1ccc(-[n+]2c3cc(N)c(C)cc3nc3cc(C)c(Nc4ccccc4)cc32)cc1
uom: µM
modifier: =
TGI: 1.08
//
molecule: CS(=O)(=O)CCNCc1nc(-c2ccc3ncnc(Nc4ccc(F)c(Cl)c4)c3c2)cs1
uom: µM
modifier: >
TGI: 25
//
molecule: CSc1c(C(=O)Nc2ccccc2)c(N)nn1-c1ccccc1
uom: µM
modifier: >
TGI: 100
//
molecule: CCN(CC)CCOc1nc2ccc(OC)cc2c2c1-c1ccc(OC)cc1C2=O
uom: µM
modifier: =
TGI: 1.88
//
molecule: COc1ccc(N[C@H](CS(=O)c2ccc(C)cc2)c2ccc(F)cc2)cc1 (stereo partly specified)
uom: µM
modifier: >
TGI: 100
//
molecule: Cc1ccc2c(=O)cc(-c3csc4ccccc34)[nH]c2n1
uom: µM
modifier: =
TGI: 1.09
//
molecule: CSc1nc(NC2CCCC2)c2cc[nH]c2n1
uom: µM
modifier: >
TGI: 100
//
molecule: CC(=O)NNc1nc(C)c(C(/C=C/c2ccc3c(c2)OCO3)=N/Nc2ccccc2)s1
uom: µM
modifier: >
TGI: 100
//
molecule: Cc1ccc([N+](=O)[O-])cc1S(=O)(=O)Nc1ccc(C2=NN(c3ccc([N+](=O)[O-])cc3[N+](=O)[O-])C(c3ccccc3)C2)cc1 (stereo unspecified)
uom: µM
modifier: =
TGI: 38.9
//
molecule: c1ccc(CNc2c3c(nc4ccccc24)CCC3)cc1
uom: µM
modifier: =
TGI: 62.5
//
molecule: CN1CC2=C(OC(N)=C(C#N)C2c2cccs2)/C(=C/c2cccs2)C1 (stereo unspecified)
uom: µM
modifier: =
TGI: 81.7
//
molecule: O=c1[nH]nc(Cc2ccccc2)n1/N=C/c1c[nH]c2ccccc12
uom: µM
modifier: >
TGI: 100
//
molecule: Cc1c2c(nn1-c1ccc(S(=O)(=O)NC(=S)Nc3ccccc3)cc1)-c1ccccc1CC2
uom: µM
modifier: >
TGI: 50
//
molecule: COc1cc2c(cc1C[N+](C)(C)CSc1ccccc1)-c1ccccc1CC2
uom: µM
modifier: =
TGI: 21.2
//
molecule: COc1ccc(N=C2CSc3nnc(-c4cc(F)c(Cl)cc4Cl)n3N2)cc1
uom: µM
modifier: =
TGI: 3.87
//
molecule: CCN(CC)Cc1nc2sc3c(c2c(=O)n1-c1ccccc1)CCCC3
uom: µM
modifier: =
TGI: 47.8

###

Test system: NCI-H460 lung
Classes used: active, inactive

compound: O=c1oc2cc(OS(=O)(=O)c3ccc(F)cc3)ccc2c2c1CCCCC2
class: inactive

compound: COc1cc(C2C=C(c3cccc(NC(C)=O)c3)Nc3ncnn32)cc(OC)c1OC (configuration not stated)
class: inactive

compound: COc1cc2c(cc1OC)C(=O)/C(=C/c1cccc(OCC(=O)c3ccccc3)c1)C2
class: inactive

compound: COc1ccc2cc(C(=O)/C=C/c3cc(OC)c(OC)c(OC)c3)ccc2c1
class: inactive

compound: COC(=O)N[C@H]1CCc2c(Br)c(OC)c(OC)c(OC)c2-c2ccc(SC)c(=O)cc21
class: active

compound: COc1ccc(C(=O)/C(Br)=C/C(=O)O)cc1
class: inactive

compound: C=C1CC2(OC1=O)C(=O)N(CCCCCCCN1C(=O)C3(CC(=C)C(=O)O3)c3ccccc31)c1ccccc12 (configuration not stated)
class: inactive

compound: C[C@@H]1C[C@@H](O)[C@]2(O)O[C@@H]3C[C@@]4(C=O)[C@@H](CC[C@@H]5[C@@H]4CC[C@]4(C)[C@@H](C6=CC(=O)OC6)CC[C@]54O)C[C@H]3O[C@@H]2O1
class: active

compound: CCOC(=O)c1ccc(NC(=O)N2CC(C)OC(C)C2)cc1 (configuration not stated)
class: inactive

compound: Cc1cc(-c2ncc(CC(=O)Nc3ccc(-c4cnccn4)cn3)cc2C)ccn1
class: inactive

compound: CN(C)c1cccc2c(S(=O)(=O)N[C@H]3CC[C@H]4[C@@H]5CCc6cc(O)ccc6[C@H]5CC[C@]34C)cccc12
class: inactive

compound: C=C1C(=O)O[C@H]2[C@H]1CC/C(COC(=O)c1cc3cc(F)ccc3[nH]1)=C\CC[C@@]1(C)O[C@@H]21
class: inactive

###

System: PC-3 prostate
Experiment: NCI tumour cell line growth inhibition, 48 h; in the data active means GI50 below about 0.43 µM; inactive means the rest
Classes used: 1 for active, -1 for inactive

compound: CC(=O)Nc1ccc2c(c1)c(C1=C(c3cn(C)c4ccccc34)C(=O)NC1=O)cn2C
class: -1
//
compound: CCOC(=O)c1ccc(NC(=O)N2CC(C)OC(C)C2)cc1 (stereo not given)
class: -1
//
compound: Cc1ccc2[nH]cc(-c3nc(-c4c[nH]c5ncccc45)cs3)c2c1
class: -1
//
compound: O=C1NCc2ccc3c(-c4cccc(Cl)c4)c[nH]c3c21
class: 1
//
compound: COc1cc(C2CC(c3ccc(C)cc3)=NN2C=O)ccc1Oc1ccnc2cc(Cl)ccc12 (stereo not given)
class: -1

###

System: K-562 leukemia
Test: NCI tumour cell line growth inhibition, 48 h

molecule: COc1ccc(Cl)cc1Nc1nc(C(F)(F)F)ccc1C(=O)N/N=C/c1c(Cl)cccc1Cl
TGI: 32.5 µM
--
molecule: COc1ccc(N2C=Nn3c(nc4sc(C)c(C)c4c3=O)C2)cc1
TGI: > 100 µM
--
molecule: CC1=C(C)C(=O)c2c(cc3ccc4ccccc4n23)C1=O
TGI: > 100 µM
--
molecule: CS(=O)(=O)CCNCc1nc(-c2ccc3ncnc(Nc4ccc(F)c(Cl)c4)c3c2)cs1
TGI: > 19.7 µM
--
molecule: COc1cccc(N2C(=O)C3c4[nH]c5ccccc5c4C4c5ccccc5CCC4C3C2=O)c1 (stereo not given)
TGI: > 10 µM
--
molecule: CCOc1cc2ncc(C#N)c(Nc3ccc(OCc4cccc(F)c4)c(Cl)c3)c2cc1NC(=O)CC1CCSS1 (stereo not given)
TGI: > 25 µM
--
molecule: CCCCOC(=O)CNC(=O)OCCCCC#CC#CCCCCOC(=O)NCC(=O)OCCCC
TGI: > 100 µM
--
molecule: COc1ccc2nc(N/N=C(\C)c3ccccn3)cc(C)c2c1
TGI: 1.3 µM
--
molecule: CC(C)(CO)CNc1cc(=O)[nH]c(N)n1
TGI: > 100 µM
--
molecule: CC(=O)c1ccc(N=Nc2ccc3nonc3c2N)cc1
TGI: > 100 µM

###

Test system: KM12 colon
Experiment: NCI tumour cell line growth inhibition, 48 h
measurement-name: TGI

compound: COc1ccc(CCn2cnc3ccccc32)cc1
measurement-name: TGI
result: > 100 µM

compound: CC1=C(C)C(=O)c2c(cc3ccc4ccccc4n23)C1=O
measurement-name: TGI
result: > 100 µM

compound: COc1cc2c3c(n(C)c(=O)c2cc1OC)-c1cc2c(cc1/C3=C\CCCCCN)OCO2
measurement-name: TGI
result: 90.1 µM

compound: CC1(C)OC2OC(COC(=O)C=[N+]=[N-])C3OC(C)(C)OC3C2O1 (configuration not stated)
measurement-name: TGI
result: > 100 µM

compound: COc1cccc2cc(C)c(C(=O)c3ccccc3)nc12
measurement-name: TGI
result: > 100 µM

compound: Cc1cnoc1NC1=CC(=O)C(=O)c2ccccc21
measurement-name: TGI
result: > 100 µM

compound: OC(C1CCC=NN1C(O)(C(F)(F)F)C(F)(F)F)(C(F)(F)F)C(F)(F)F (configuration not stated)
measurement-name: TGI
result: > 10 µM

compound: COc1cc2c3cc1Oc1c(O)c(OC)cc4c1[C@H](Cc1ccc(cc1)Oc1cc(ccc1O)C[C@H]3N(C)CC2)N(C)CC4
measurement-name: TGI
result: 23.7 µM

compound: O=C(NNc1nc(Cl)nc(N2CCN(C(c3ccccc3)c3ccccc3)CC2)n1)c1ccccc1
measurement-name: TGI
result: > 100 µM

compound: O=C(Nc1ccccc1F)c1c(O)nc2sccn2c1=O
measurement-name: TGI
result: > 10 µM

compound: COc1ccc2c(c1)/C(=C\c1c(C)nc3sc(C)cn13)C(=O)N2C
measurement-name: TGI
result: 43.4 µM

compound: CCOC(=O)/C(O)=C1\C(=O)N(C)C(=O)C1c1ccc(OC)c(OC)c1 (configuration not stated)
measurement-name: TGI
result: > 100 µM

compound: COc1cc(-c2nn(-c3ccc(NC(=O)c4ccc(Cl)c(Cl)c4)cc3)cc2-c2ccncc2)ccc1Cl
measurement-name: TGI
result: > 100 µM

compound: CCC1C(=O)C[C@H]2[C@@H]3C(O)CC4=CC(=O)CC[C@]4(C)[C@H]3CC[C@]12C (some centres not stated)
measurement-name: TGI
result: > 50 µM

compound: COc1ccc2c(c1)OC(c1cccnc1)C(c1ccccc1)C2=O (configuration not stated)
measurement-name: TGI
result: > 100 µM

compound: COC(=O)Cc1ccc2c(c1)Sc1ccc(CC(=O)OC)cc1N2C
measurement-name: TGI
result: > 100 µM

compound: CCC[CH2][Sn-]([CH2]CCC)([CH2]CCC)[O]c1cc(Cl)c(Cl)cc1Cl
measurement-name: TGI
result: 0.402 µM

compound: COc1cc(/C(C#N)=C/c2ccc3c(c2OC)OCO3)cc2c1OCO2
measurement-name: TGI
result: > 100 µM

compound: CC(=O)c1ccc(N=Nc2ccc3nonc3c2N)cc1
measurement-name: TGI
result: > 100 µM

compound: COC1=CC(=O)c2ccccc2C1(CCC=C(C)C)C1=NC(C)(C)CO1 (configuration not stated)
measurement-name: TGI
result: > 100 µM

compound: CCN(CC)Cc1nc2sc3c(c2c(=O)n1-c1ccccc1)CCCC3
measurement-name: TGI
result: > 100 µM

compound: O=C(O)CSc1n[nH]c(-c2ccc(O)cc2)n1
measurement-name: TGI
result: > 100 µM

compound: C=C1C(=O)O[C@H]2[C@H]1CC/C(Cn1cc(CNC(=O)Cc3cn(C(=O)c4ccc(Cl)cc4)c4ccc(OC)cc34)nn1)=C\CC[C@@]1(C)O[C@@H]21
measurement-name: TGI
result: 7.23 µM

compound: Cn1c(=O)c2c(nc(NCCCCl)n2CC(=O)O)n(C)c1=O
measurement-name: TGI
result: > 100 µM

compound: COc1cc(CCc2ccc(OCCN(C)C)cc2)cc(OC)c1OC
measurement-name: TGI
result: > 100 µM

compound: COc1ccc(N[C@H](CS(=O)c2ccc(C)cc2)c2ccc(F)cc2)cc1 (some centres not stated)
measurement-name: TGI
result: > 100 µM

compound: O=C(Oc1ccc(Cl)cc1Cl)c1ccccc1Nc1ccnc(C(F)(F)F)c1
measurement-name: TGI
result: 21.1 µM

compound: CCOC(=O)/C(=C\NCC(O)c1ccccc1)c1nc2ccccc2[nH]1 (configuration not stated)
measurement-name: TGI
result: 67.9 µM

compound: COC(=O)CCCc1ccc2c(c1)CC1(C2)Cc2cc3c(cc2C1)CCCC3
measurement-name: TGI
result: 80.6 µM

compound: O=[N+]([O-])c1cccc(-c2csc(N=Nc3c(O)[nH]c4ccccc34)n2)c1
measurement-name: TGI
result: > 100 µM

compound: COc1ccc2c(c1)O[C@@H]1C(O)Oc3cc(OC)c(OC)cc3[C@]1(O)C2=O (some centres not stated)
measurement-name: TGI
result: > 100 µM

compound: Cc1ccc(N=Nc2c(C)nn(C(=O)CC(=O)Nc3ccccc3)c2C)cc1C
measurement-name: TGI
result: > 100 µM

compound: CC(=O)OC(Cc1cc(C=C(C(F)(F)F)C(F)(F)F)cc(C)n1)(C(F)(F)F)C(F)(F)F
measurement-name: TGI
result: 2.98 µM

compound: CC1(C)OP23(NC(=O)OC2(C(F)(F)F)c2ccccc2O3)OC1(C)C (configuration not stated)
measurement-name: TGI
result: > 100 µM

compound: Cc1nc2ccc(S(=O)(=O)Nc3ccc(Cl)cc3)cc2c(=O)n1NC(=O)CNc1ccc(Cl)cc1
measurement-name: TGI
result: > 100 µM

compound: CCN(CC)CCOc1nc2ccc(OC)cc2c2c1-c1ccc(OC)cc1C2=O
measurement-name: TGI
result: 1.77 µM

compound: Cc1nc2c(nc1C)C(=O)c1cc(O)ccc1C2=O
measurement-name: TGI
result: > 100 µM

compound: CCNC(=O)Nc1cccc(C)n1
measurement-name: TGI
result: > 100 µM

compound: O=C1NCc2ccc3c(-c4cccc(Cl)c4)c[nH]c3c21
measurement-name: TGI
result: > 29.7 µM

compound: COc1cc(C2CC(c3ccc(C)cc3)=NN2C=O)ccc1Oc1ccnc2cc(Cl)ccc12 (configuration not stated)
measurement-name: TGI
result: > 50 µM

compound: Cc1ccc(C)n2c1nc1ccc3ccccc3c12
measurement-name: TGI
result: > 100 µM

compound: COc1nc(N(C)O)nc(N(C)O)n1
measurement-name: TGI
result: > 100 µM
